system: Chordin-like protein 2 (CHRDL2); assay: CHRDL2 small-molecule binders, primary screen, biochemical, small-molecule microarray, 635 nm fluorescence (AID 1126); settings: small-molecule microarray binding, fluorescence 635 nm; higher = more signal;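 also: printed compound slides probed with Chrdl2 protein at 4 µg/mL for 1 h at 4 C; score merges 667 nm emission intensity with signal to noise over three replicate slides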
Categorized via composite z-score: lower bin: < -0.2; middle bin: ≥ -0.2 and < 0.7; upper bin: ≥ 0.7

Dear colleague, I would appreciate it if you could identify the bin for C=C(C(=O)CC[C@@H](OC(=O)c1cccnc1)c1ccccc1OCCO)C(C)C and reply at your convenience.
middle bin

Dear colleague, I would appreciate it if you could identify the bin for COCCOC(=O)N1C(=O)[C@@]2(c3ccccc31)[C@H](c1ccccc1OCCO)N1[C@H](c3ccccc3)[C@H](c3ccccc3)OC(=O)[C@H]1[C@@H]2C(=O)N1CCN(c2ncccn2)CC1 and reply at your convenience.
middle bin

New cases:
Dear colleague, I would appreciate it if you could identify the bin for O=C(c1ccccc1)N1Cc2ccccc2C[C@@]2(COC(c3ccc(OCCCO)cc3)=N2)C1=O and reply at your convenience.
middle bin

Dear colleague, I would appreciate it if you could identify the bin for O=C1c2ccccc2[C@](Cc2ccccc2I)(C(=O)NCC(F)(F)F)[C@H](c2ccc(CO)cc2)N1Cc1ccccc1Cl and reply at your convenience.
lower bin

Dear colleague, I would appreciate it if you could identify the bin for O=C1c2ccccc2[C@](Cc2ccccc2I)(C(=O)NCCN2CCOCC2)[C@H](c2ccc(CO)cc2)N1C1CCCCC1 and reply at your convenience.
middle bin

Dear colleague, I would appreciate it if you could identify the bin for CO[C@H]1O[C@H](CO)[C@@H](OC(=O)Nc2cccc(F)c2)[C@H](OC(=O)Nc2ccccc2)[C@@H]1OC(=O)Nc1ccccc1 and reply at your convenience.
lower bin

Dear colleague, I would appreciate it if you could identify the bin for CC(=O)NCCCC[C@@H]1NC(=O)[C@@H]2C[C@H](C(=O)NCCCCCNC(=O)CS)[C@H](c3cccc(OCCO)c3)N2C1=O and reply at your convenience.
upper bin

Dear colleague, I would appreciate it if you could identify the bin for CN1C(=O)C2C=CC(C(O)C3CC=CCC3)N(N(c3ccccc3)c3ccccc3)C2C1=O (stereo not given) and reply at your convenience.
upper bin

Dear colleague, I would appreciate it if you could identify the bin for C[N+](C)(C)CCCC[C@@H]1NC(=O)[C@H]2C[C@@H](C(=O)NCCCCCCNC(=O)CS)[C@@H](c3cccc(OCCO)c3)N2C1=O and reply at your convenience.
lower bin

Dear colleague, I would appreciate it if you could identify the bin for C[N+](C)(C)CCCCCCNC(=O)[C@@H]1C[C@@H]2C(=O)N[C@@H](Cc3ccccc3)C(=O)N2[C@@H]1c1cccc(OCCO)c1 and reply at your convenience.
upper bin

Dear colleague, I would appreciate it if you could identify the bin for CCCCCN1CC=CC23O[C@@H]4/C=C\CCC(C)OC(=O)C4[C@H]2C(=O)N(C(C)CO)[C@@H]3C1=O (stereo not given in full) and reply at your convenience.
lower bin

Dear colleague, I would appreciate it if you could identify the bin for COc1ccc(C#Cc2ccc3c(c2)[C@]2(C(=O)N3)[C@H](c3ccccc3OCCO)N3[C@H](c4ccccc4)[C@H](c4ccccc4)OC(=O)[C@H]3[C@@H]2C(=O)Nc2nc3ccccc3s2)cc1 and reply at your convenience.
upper bin

Dear colleague, I would appreciate it if you could identify the bin for C=C(/C(=C/C[C@H](OC(C)=O)c1ccccc1OCCO)c1cnc2ccccc2c1)C(C)C and reply at your convenience.
middle bin

Dear colleague, I would appreciate it if you could identify the bin for CCS[C@H]1[C@@H](C(=O)O)[C@H](c2ccc(C)cc2)N(S(=O)(=O)c2ccc(C)cc2)[C@@H]1CC and reply at your convenience.
lower bin

Dear colleague, I would appreciate it if you could identify the bin for C=C(CCCC)/C(=C/C[C@@H](OC(=O)c1ccncc1)c1ccc(OCCO)cc1)c1cc(C(=O)OC)ccc1OC and reply at your convenience.
middle bin

Recorded values, source PubChem BioAssay.
